Listed compounds paired with reported zone of inhibition at 25 µg/mL
- Tested on: Staphylococcus aureus
- Protocol Text: Antimicrobial activity against Staphylococcus aureus at 25 ug/ml by agar plate diffusion technique
- Type: functional
- Details: read-out: IZ
# value in mm; strip the unit string

- Cn1c(NN)nc(-c2ccccc2O)c(C#N)c1=O: 10.6
- Cn1c(NN)nc(-c2ccc(Cl)cc2)c(C#N)c1=O: 11.2
- Cn1c(NN)nc(-c2cccs2)c(C#N)c1=O: 9.12
- CCOC(=O)c1cnn(-c2nc(-c3cccc(O)c3O)c(C#N)c(=O)n2C)c1N: 12.7
- CSc1nc(-c2cccc(O)c2O)c(C#N)c(=O)n1C: 8.7
- CCOC(=O)c1cnn(-c2nc(-c3ccco3)c(C#N)c(=O)n2C)c1N: 10.9

Proceeding to the next compound to report its zone of inhibition at 25 µg/mL.
## Task Retrieve zone of inhibition at 25 µg/mL measured for "CCOC(=O)c1cnn(-c2nc(-c3cccc(OC)c3OC)c(C#N)c(=O)n2C)c1N" and print it.
## Result 10.3
